System: ryegrass, Italian (Italian ryegrass, Lolium multiflorum)
Assay: Test A preemergence
Format: in vivo
Conditions: Lolium multiflorum, pre-emergence, 240 h, 125 g ai/ha, preemergence; 0 to 100 scale where 0 is no effect and 100 is complete control; read-out: Ryegrass, Italian plant response rating
Parameter Measured: pest or weed control at 125 g/ha (%)
One number for each entry, in %.

Use these answered entries as a reference point.
CSc1ccccc1NC(=O)[C@H]1C(=O)NC[C@@H]1c1cccc2c1OC(F)(F)O2 [Compound 865]	0
CN1CC(c2cccc(I)c2)C(C(=O)Nc2ccccc2F)C1=O (stereo not shown) [Compound 846]	60
COc1ccc([C@H]2CN(C)C(=O)[C@@H]2C(=O)Nc2ccccc2SC)cc1OC [Compound 854]	0

Here is another molecule to look at.
Input COc1ccc([C@H]2CN(C)C(=O)[C@@H]2C(=O)Nc2ccccc2F)cc1OC [Compound 852] . Output pest or weed control at 125 g/ha: 0

----------
So I've got a bunch of molecules here, and I need their Ragweed plant response rating values.
System: ragweed (common ragweed, Ambrosia elatior)
Experiment: Test A postemergence
Format: in vivo
Conditions: 125 g ai/ha, postemergence; visual injury rating on 0 to 100 scale (0 no effect, 100 complete control), approx. 10 d
Answers are plain numbers.

Okay, here is my list. What is Ragweed plant response rating for each of these?
1. Cc1ccc(C2CN(C)C(=O)C2C(=O)Nc2cccc(F)c2F)cc1F (stereo not shown) [Compound 464]
2. CN1CC(c2cccc(OC(F)(F)C(F)F)c2)C(C(=O)Nc2ccc(F)cc2F)C1=O (stereo not shown) [Compound 393]
3. O=C1NCC(c2cccc(OC(F)(F)C(F)F)c2)C1C(=O)Nc1ccccc1C(F)F (stereo not shown) [Compound 391]

30
0
20

Noted for O=C(Nc1ccccc1F)C1C(=O)N(C2C=CCCC2)CC1c1cccc(C(F)(F)F)c1 (stereo not shown) [Compound 524] : its Ragweed plant response rating reads 0

----------
Would you mind telling me the reported Plant response rating (scale of 0 to 100), Rice of each entry?
Tested on: rice (Oryza sativa)
Assay: Test C flooded paddy test
Format: in vivo
Details: Flood, 125 g ai/ha; 0 is no effect, 100 is complete control
Answers are plain numbers.

CN1CC(c2ccc(F)c(C(F)(F)F)c2)C(C(=O)Nc2cccc(F)c2F)C1=O (stereo not shown)	10
C=CCN1CC(c2cccc(C(F)(F)F)c2)C(C(=O)Nc2cccc(F)c2F)C1=O (stereo not shown)	0

Please report Plant response rating (scale of 0 to 100), Rice for every entry that follows.
1. CN1C[C@H](c2ccc(F)c(F)c2)[C@@H](C(=O)Nc2cccc(F)c2F)C1=O
2. CN1CC(c2cccc(OC(F)F)c2)C(C(=O)Nc2ccccc2F)C1=O (stereo not shown)

20
15

----------
Tested on: ragweed (common ragweed, Ambrosia elatior)
Test: Test A preemergence
Type: in vivo
Details: Ambrosia artemisiifolia, pre-emergence, 240 h, 125 g ai/ha, preemergence; 0 to 100 scale where 0 is no effect and 100 is complete control; read-out: Ragweed plant response rating
Parameter Measured: pest or weed control at 125 g/ha
Field note: include the unit after the figure.

Examples with their reported pest or weed control at 125 g/ha follow.
Cc1cc(C)cc([C@H]2CNC(=O)[C@@H]2C(=O)Nc2cccc(F)c2F)c1 [Compound 889]	30%
N#Cc1cccc(NC(=O)[C@H]2C(=O)NC[C@@H]2c2cccc(C(F)(F)F)c2)c1F [Compound 829]	30%
CN1C[C@H](c2cc(F)c(C(F)(F)F)c(F)c2)[C@@H](C(=O)Nc2ccc(F)cc2F)C1=O [Compound 901]	0%
Cc1cc(F)cc([C@H]2CNC(=O)[C@@H]2C(=O)Nc2ccc(F)c(F)c2F)c1 [Compound 848]	0%
CC(C)c1cccc([C@H]2CN(C)C(=O)[C@@H]2C(=O)Nc2ccccc2F)c1 [Compound 819]	0%

In plain terms, Cc1c(F)cccc1NC(=O)[C@H]1C(=O)N(C)C[C@@H]1c1cccc(COC(F)F)c1 [Compound 874] has a documented pest or weed control at 125 g/ha of 20%
